Data origin: patent US9133206B2

system: SK-N-SH human neuroblastoma cells; test: Serum Deprivation/JC-1 Mitochondrial Membrane Potential (MMP) Assay; type: cell-based; conditions: Homo sapiens, SK-N-SH, percent maximal intensity in JC-1 ratio normalized to peak value for 10 μM dimebolin, serum deprivation, read-out: JC-1 max %
Measured Emax of individual entries
recorded.endpoint: Emax

> print(dat)
                                    molecule                        test.target  result
 1  CCCC(=O)N1Cc2ccccc2N2CCN(Cc3ccccc3)CC2C1 (centres unmarked)  SK-N-SH human neuroblastoma cells    162%
 2  O=C(/C=C/c1ccccc1)N1Cc2ccccc2N2CCN(Cc3ccccc3)CC2C1 (centres unmarked)  SK-N-SH human neuroblastoma cells    133%
 3  COc1ccccc1CN1Cc2ccccc2N2CCN(Cc3ccccc3)CC2C1 (centres unmarked)  SK-N-SH human neuroblastoma cells    163%
 4  Fc1ccc(CN2Cc3ccccc3N3CCN(Cc4ccccc4)CC3C2)cc1 (centres unmarked)  SK-N-SH human neuroblastoma cells    183%
 5  Brc1ccc(CN2Cc3ccccc3N3CCN(Cc4ccccc4)CC3C2)cn1 (centres unmarked)  SK-N-SH human neuroblastoma cells    200%
 6  Fc1ccc(CN2CCN3c4ncccc4N(CC4CC4)CCC3C2)cc1 (centres unmarked)  SK-N-SH human neuroblastoma cells    139%
 7  CC1(C)C(CN2CCC3CN(Cc4ccccc4)CCN3c3ncccc32)C1(C)C (centres unmarked)  SK-N-SH human neuroblastoma cells    306%
 8  CN1CCN2c3ccccc3N(Cc3ccc(Br)cc3)CCC2C1 (centres unmarked)  SK-N-SH human neuroblastoma cells    173%
 9  CN1CCN2c3ccccc3CN(Cc3ccc(Br)cc3)CC2C1 (centres unmarked)  SK-N-SH human neuroblastoma cells    167%
10  O=C(c1ccoc1)N1Cc2ccccc2N2CCN(Cc3ccccc3)CC2C1 (centres unmarked)  SK-N-SH human neuroblastoma cells    172%
11  Fc1cc(CN2Cc3ccccc3N3CCN(Cc4ccccc4)CC3C2)ccc1Br (centres unmarked)  SK-N-SH human neuroblastoma cells    238%
12  O=C(N1CCOCC1)N1Cc2ccccc2N2CCN(c3ncccn3)CC2C1 (centres unmarked)  SK-N-SH human neuroblastoma cells     97%
13  c1ccc(CN2CCN3c4ccccc4N(Cc4ccncc4)CCC3C2)cc1 (centres unmarked)  SK-N-SH human neuroblastoma cells    125%
14  O=C(c1ccccc1)N1CCN2c3ccccc3CN(C(=O)N3CCOCC3)CC2C1 (centres unmarked)  SK-N-SH human neuroblastoma cells     86%
15  c1ccc(CN2CCN3c4ccccc4CN(c4cnccn4)CC3C2)cc1 (centres unmarked)  SK-N-SH human neuroblastoma cells    122%
16  Brc1ccc(CN2Cc3ccccc3N3CCN(Cc4ccccc4)CC3C2)nc1 (centres unmarked)  SK-N-SH human neuroblastoma cells    189%
17  c1ccc(CN2CCN3c4ccccc4CNCC3C2)cc1 (centres unmarked)  SK-N-SH human neuroblastoma cells    186%
